- Protocol Details: PAMPA (parallel artificial membrane permeability assay)
- Format: in vitro ADME
- Test Parameters: PAMPA; membrane permeation rate (Pe); 50 mM MOPSO buffer pH 6.5 with 5.0% glycocholic acid, 37° C., 18 hours; read-out: iPAMPA Pe
Positions of bridges follow the written chain, without caps; N, C: chain ends. Non-standard residues stand in square brackets, D forms with d. Residues, ends and D or L forms follow the SMILES beside them. *: point of attachment. NMeF = CN[C@@H](Cc1ccccc1)C(=O)O; NMeL = CN[C@@H](CC(C)C)C(=O)O; NMeV = CN[C@H](C(=O)O)C(C)C; NMeA = CN[C@@H](C)C(=O)O; Piperidide = C1CCN(*)CC1; Sar = CNCC(=O)O
# maps each entry to its Papp at 18 hours, 50 µM
Expressed in ×10⁻⁶ cm/s, but write only the number.

| Compound | Unit Name | Result |
| --- | --- | --- |
| CC(C)C[C@H]1C(=O)N[C@H](C(=O)N2CCCCC2)CC(=O)N(C)CC(=O)N[C@@H]([C@@H](C)O)C(=O)N(C)[C@@H](C)C(=O)N(C)[C@@H](Cc2ccccc2)C(=O)NCC(=O)N(C)[C@@H](Cc2ccccc2)C(=O)N(C)[C@@H](CC(C)C)C(=O)N(C)[C@@H](CC(C)C)C(=O)N1C [DP-175] ([Sar]T[NMeA][NMeF]G[NMeF][NMeL][NMeL][NMeL]D-Piperidide; lactam N-10) | ×10⁻⁶ cm/s | 48 |

# next compound below
Request: Could you tell me which Papp at 18 hours, 50 µM is on file for CC[C@H](C)[C@@H]1NC(=O)[C@H](C)N(C)C(=O)[C@H]([C@@H](C)O)NC(=O)[C@H](CC(C)C)N(C)C(=O)[C@H](Cc2ccccc2)N(C)C(=O)[C@H](C)N(C)C(=O)[C@@H](C(C)C)NC(=O)C[C@@H](C(=O)N(C)[C@@H](Cc2ccccc2)C(=O)N(C)[C@@H](Cc2ccccc2)C(=O)N[C@@H](C)C(=O)N2CCCCC2)NC(=O)[C@H](C(C)C)N(C)C(=O)[C@H](CC(C)C)N(C)C1=O [DP-510] ([dV][NMeA][NMeF][NMeL]T[NMeA]I[NMeL][NMeV]D[NMeF][NMeF]A-Piperidide; lactam N-10) ?
Response: 2.2

----------
Form field: Hepatic microsome CLhint (Human) In the absence of NADPH (one value per entry).
- Protocol Details: Metabolic stability in human hepatic microsome
- Assay type: in vitro ADME
Positions of bridges follow the written chain, without caps; N, C: chain ends. Non-standard residues stand in square brackets, D forms with d. Residues, ends and D or L forms follow the SMILES beside them. *: point of attachment. NMeF = CN[C@@H](Cc1ccccc1)C(=O)O; NMeI = CC[C@H](C)[C@H](NC)C(=O)O; NMeL = CN[C@@H](CC(C)C)C(=O)O; NMeA = CN[C@@H](C)C(=O)O; Piperidide = C1CCN(*)CC1; Sar = CNCC(=O)O; tBu = CC(C)(C)*
Unit ul/min/mg Protein implied. Number only.

Answered cases to consult:
| Compound | Result |
| --- | --- |
| CC(C)C[C@H]1C(=O)N[C@@H](COC(C)(C)C)C(=O)N[C@H](C(=O)N2CCCCC2)CC(=O)N(C)[C@@H](C)C(=O)N(C)[C@@H](C)C(=O)N(C)[C@@H](Cc2ccccc2)C(=O)N(C)[C@@H](CC(C)C)C(=O)N[C@@H]([C@@H](C)O)C(=O)N(C)CC(=O)N1C [Compound P-120] ([NMeA][NMeA][NMeF][NMeL]T[Sar][NMeL]S(tBu)D-Piperidide; lactam N-9) | 5 |
| CC[C@H](C)[C@H]1C(=O)N[C@H](C(=O)N2CCCCC2)CSCC(=O)N(C)[C@@H](Cc2ccccc2)C(=O)N(C)[C@@H](CC(C)C)C(=O)N[C@@H]([C@@H](C)O)C(=O)N(C)CC(=O)N(C)[C@@H](CC(C)C)C(=O)N[C@@H](COC(C)(C)C)C(=O)N1C [Compound P-103] ({CH2CO}-[NMeF][NMeL]T[Sar][NMeL]S(tBu)[NMeI]C-Piperidide; thioether N-8) | 3 |

Request: Which Hepatic microsome CLhint (Human) In the absence of NADPH is listed for CC(C)C[C@H]1C(=O)N[C@@H](COC(C)(C)C)C(=O)N[C@H](C(=O)N2CCCCC2)CCC(=O)N[C@@H](C)C(=O)N(C)[C@@H](C)C(=O)N(C)[C@@H](Cc2ccccc2)C(=O)N(C)[C@@H](CC(C)C)C(=O)N[C@@H]([C@@H](C)O)C(=O)N(C)CC(=O)N1C [Compound P-121] (A[NMeA][NMeF][NMeL]T[Sar][NMeL]S(tBu)E-Piperidide; lactam N-9) ?
Response: 8
